Test system: blackgrass (Alopecurus myosuroides)
protocol.summary: Test B postemergence
Type: in vivo
experimental.parameters: 500 g ai/ha, scale 0 to 100
assay.readout: Plant response rating, Blackgrass
Number, no unit, nothing else.

>>> quantitative_readout("CCOC(=O)c1nc(C2CC2)nc(N=CN(C)C)c1Br")
60
>>> quantitative_readout("CCOC(=O)C(C)c1nc(C2CC2)nc(N)c1Br (centres unmarked)")
40
>>> quantitative_readout("CCOC(=O)c1nc(C2CC2)nc(NOCc2ccccc2)c1Br")
40
>>> quantitative_readout("CCOC(=O)Cc1nc(C2CC2)nc(N=CN(C)C)c1Br")
40

Please look at the following molecule next.
// Plant response rating, Blackgrass lookup, molecule = COC(=O)c1nc(C2CC2)nc(N=CN(C)C)c1Br , result: 80

###

System: woolly cupgrass (Eriochloa villosa)
protocol.summary: Test C pre/postemergence
Type: in vivo
experimental.parameters: Preemergence, 125 g ai/ha; scale 0 to 100
assay.readout: Plant response rating, Cupgrass, Woolly
Number, no unit, nothing else.

// Plant response rating, Cupgrass, Woolly lookup, compound = COC(=O)c1nc(C2CC2C)nc(N)c1Br (centres unmarked) , result: 0

// Plant response rating, Cupgrass, Woolly lookup, compound = CCCOC(=O)c1nc(C2CC2)nc(N)c1Cl , result: 60

// Plant response rating, Cupgrass, Woolly lookup, compound = Nc1nc(-c2ccc(Cl)cc2)nc(C(=O)[O-])c1Cl.[Na+] , result: 50

// Plant response rating, Cupgrass, Woolly lookup, compound = CCOC(=O)Cc1nc(C2CC2)nc(N=CN(C)C)c1Br , result: 0

// Plant response rating, Cupgrass, Woolly lookup, compound = Nc1nc(C2CC2)nc(C=NO)c1Br , result: 0

// Plant response rating, Cupgrass, Woolly lookup, compound = CCOC(=O)C(OC(C)=O)c1nc(C2CC2)nc(N)c1Br (centres unmarked) , result: 0

// Plant response rating, Cupgrass, Woolly lookup, compound = Nc1nc(C2CC2)nc(C(=O)O)c1Cl , result: 0

// Plant response rating, Cupgrass, Woolly lookup, compound = COC(=O)CNc1nc(C2CC2)nc(C(=O)OC)c1Br , result: 0

###

Test system: lambsquarters (Chenopodium album)
protocol.summary: Test C pre/postemergence
Type: in vivo
experimental.parameters: Postemergence, 500 g ai/ha; scale 0 to 100
Below, each entry is listed alongside its reported Plant response rating, Lambsquarters.
Number, no unit, nothing else.

>>> quantitative_readout("COC(=O)c1nc(C2CC2C)nc(N)c1Br (stereo not drawn)")
95
>>> quantitative_readout("CN(C)N=Cc1nc(C2CC2)nc(N)c1Br")
85

Tested on lambsquarters (Chenopodium album), the item CCOC(=O)c1nc(-c2ccc(Cl)cc2)nc(N)c1Br showed Plant response rating, Lambsquarters equal to 95

Tested on lambsquarters (Chenopodium album), the item COC(=O)CNc1nc(C2CC2)nc(C(=O)OC)c1Br showed Plant response rating, Lambsquarters equal to 100

Tested on lambsquarters (Chenopodium album), the item Nc1nc(C2CC2)nc(C=NO)c1Br showed Plant response rating, Lambsquarters equal to 50

Tested on lambsquarters (Chenopodium album), the item CNN=Cc1nc(C2CC2)nc(N)c1Br showed Plant response rating, Lambsquarters equal to 95

###

Tested on: kochia (Kochia scoparia)
protocol.summary: Test C pre/postemergence
Type: in vivo
experimental.parameters: Bassia scoparia, pre-emergence, Preemergence, 31 g ai/ha; scale 0 to 100, 0 no effect, 100 complete control; read-out: Plant response rating, Kochia
Below, each entry is listed alongside its reported pest or weed control at 31 g/ha.
Just the number in %, nothing appended.

Below are worked cases with known answers.
>>> quantitative_readout("CCOC(=O)c1nc(C2CC2)nc(N)c1F [Compound 30]")
50
>>> quantitative_readout("COC(=O)c1nc(C2CC2)nc(N)c1Br [Compound 2]")
75
>>> quantitative_readout("Nc1nc(-c2ccc(Br)cc2)nc(C(=O)O)c1Cl [Compound 95]")
40

Please look at the following compound next.
// pest or weed control at 31 g/ha lookup, compound = COC(=O)c1nc(C2CC2)nc(N)c1F [Compound 25] , result: 0
